// data source = ChEMBL document CHEMBL1201862

# System: SK-MEL-28
# PROTOCOL_TEXT: NCI tumour cell line growth inhibition, 48 h
Calls of active or inactive are those of the source. Cut-off read from the data, not from the text of the source: active = GI50 up to about 1.1 µM and inactive = higher.
Result category, one only: active, inactive

Take a look at these entries with their results.
{"COMPOUND": "O=C(O)/C(Cl)=C(/Cl)C(=O)Nc1cccc(Cl)c1", "TESTED_SYSTEM": "SK-MEL-28", "CATEGORY": "inactive"}
{"COMPOUND": "CC(C)/C(Cl)=N/OC(=O)Nc1ccc(Cl)c(Cl)c1", "TESTED_SYSTEM": "SK-MEL-28", "CATEGORY": "inactive"}
{"COMPOUND": "CCOC(=O)C1(C)CCCc2sc(N)c(C#N)c21 (stereo unspecified)", "TESTED_SYSTEM": "SK-MEL-28", "CATEGORY": "inactive"}

Query: For this compound, state the assay outcome: Cc1ccccc1C(C#N)/C(=N/NC(N)=S)C(=O)Nc1c(C)cccc1C (stereo unspecified)
Reply: inactive

Query: For this compound, state the assay outcome: COC(=O)C(C(=O)C(=O)Nc1cccc(O)c1)c1nc2ccc(Cl)cc2nc1O (stereo unspecified)
Reply: inactive

Query: For this compound, state the assay outcome: `O=C1c2ccccc2C(=O)N1CCCCNOCCCN1C(=O)c2ccccc2C1=O`
Reply: inactive

Query: For this compound, state the assay outcome: O=C(O)c1cc(CC2Cc3cc4c(cc3C2=O)CCC4)cc2c1CCC2 (stereo unspecified)
Reply: inactive

* * *

# Test system: OVCAR-8
# PROTOCOL_TEXT: NCI tumour cell line growth inhibition, 48 h
Active and inactive are the calls of the source. No stated cut-off is given here; in the data, active = GI50 up to about 1.1 µM and inactive = higher.
Result category, one only: active, inactive

{"MOLECULE": "O=C(ON=c1c2ccccc2ccc2ccccc12)c1ccccc1", "TESTED_SYSTEM": "OVCAR-8", "CATEGORY": "inactive"}
{"MOLECULE": "COc1cc2c(c(OC)c1OC)-c1ccc(SC)c(=O)cc1C(CO)C2 (stereo not given)", "TESTED_SYSTEM": "OVCAR-8", "CATEGORY": "active"}
{"MOLECULE": "Nc1nc(F)nc2c1ncn2C1OC(COP(=O)(O)O)C(O)C1O (stereo not given)", "TESTED_SYSTEM": "OVCAR-8", "CATEGORY": "inactive"}
{"MOLECULE": "Fc1ccccc1/N=c1\\oc2ccc(Br)cc2cc1-c1nc2ccccc2[nH]1", "TESTED_SYSTEM": "OVCAR-8", "CATEGORY": "inactive"}

--- query ---
Query: For this molecule, state the assay outcome: `O=[N+]([O-])c1cccc2nc3ccccc3c(NCCC[N+]3([O-])CCOCC3)c12`
Reply: active

* * *

# Tested on: BT-549
# PROTOCOL_TEXT: NCI tumour cell line growth inhibition, 48 h
Active and inactive are the calls of the source. Cut-off read from the data, not from the text of the source: active = GI50 up to about 1.1 µM and inactive = higher.
Reported GI50 values for the following compounds.

{"SMILES_RECORD": "COc1ccc2cc(-c3nc(N)nc(N4N=C(C)CC4(C)C)n3)c(=N)oc2c1", "PROPERTY_LABEL": "GI50", "VALUE_MEASURED": "18.6 µM (inactive)"}
{"SMILES_RECORD": "Cc1nn(-c2ccccc2)c2nc(S)cnc12", "PROPERTY_LABEL": "GI50", "VALUE_MEASURED": "> 100 µM (inactive)"}

// moving on: another record for GI50
Query: Give the value of GI50 reported for the following: `CC(C)=CCNc1ncnc2c1ncn2CCC(=O)O`
Reply: > 100 µM (inactive)

* * *

# Tested on: NCI/ADR-RES
# PROTOCOL_TEXT: NCI tumour cell line growth inhibition, 48 h
Active and inactive are the calls of the source. Cut-off read from the data, not from the text of the source: active = GI50 up to about 1.1 µM and inactive = higher.
PROPERTY_LABEL: GI50

{"COMPOUND": "Cc1ccc(N/N=C/C2=CC(C)(C)C(C#N)(C#N)C(O)=C2C#N)cc1", "GI50": "56 µM (inactive)"}
{"COMPOUND": "O=C1CSc2nnc(CCCCCCCCc3nnc4n3NC(=O)CS4)n2N1", "GI50": "> 100 µM (inactive)"}

Query: Give the value of GI50 reported for the following: `COc1ccc(N2N=NN(C(C)C)/C2=C(/Cl)c2nnnn2-c2ccc(OC)cc2)cc1`
Reply: 27.7 µM (inactive)

Query: Give the value of GI50 reported for the following: `Cc1cn2c(/C=N/NC(=N)N)c(-c3cc([N+](=O)[O-])c(Cl)cc3Cl)nc2s1`
Reply: > 100 µM (inactive)

Query: Give the value of GI50 reported for the following: `O=C(C=P(c1ccccc1)(c1ccccc1)c1ccccc1)c1ccc(-c2cccs2)cc1`
Reply: 4.48 µM (inactive)

* * *

# System: SK-MEL-5
# PROTOCOL_TEXT: NCI tumour cell line growth inhibition, 48 h
Structures can show the parent of a compound that is named as a salt. The source made the active and inactive calls. Rule as the data show it: active = GI50 up to about 1.1 µM and inactive = higher. Residues, ends and D or L forms follow the SMILES beside them. *: point of attachment. Tfa = O=C(C(F)(F)F)*
Result category, one only: active, inactive

{"MOLECULE": "NC(=O)N/N=C1/c2ccccc2-n2nccc21", "CATEGORY": "inactive"}
{"MOLECULE": "CCOC(=O)C1(C)CCCc2sc(N)c(C#N)c21 (stereo unspecified)", "CATEGORY": "inactive"}

Query: For this molecule, state the assay outcome: O=C(O)CC(NC(=O)C(F)(F)F)C(=O)NC(Cc1ccc(O)cc1)C(=O)O (stereo not drawn) (Tfa-Asp-Tyr-OH; configuration not given here)
Reply: inactive

Query: For this molecule, state the assay outcome: COc1ccc(C(=O)C(c2ccc(OC)cc2)C2OC(=O)C(Cl)=C2Cl)cc1 (stereo unspecified)
Reply: inactive

Query: For this molecule, state the assay outcome: COC(=O)C(=O)C(C(=O)Nc1cccc(C)c1C)C1Sc2ccccc2NC1=O (stereo unspecified)
Reply: inactive

Query: For this molecule, state the assay outcome: `Cc1nc2ccccc2c(=O)n1NC(=S)Nc1cccc(Cl)c1`
Reply: inactive

* * *

Reported GI50 values for the following compounds.
# Tested on: SN12C
# PROTOCOL_TEXT: NCI tumour cell line growth inhibition, 48 h
Calls of active or inactive are those of the source. Rule as the data show it: active = GI50 up to about 1.1 µM and inactive = higher.

Worked cases, answers included:
{"COMPOUND": "Clc1ccc2c(NCCCC/N=C/c3ccccc3)ccnc2c1", "TESTED_SYSTEM": "SN12C", "GI50": "5.69 µM (inactive)"}
{"COMPOUND": "Cc1cn([C@@H]2O[C@H](CO[Si](C)(C)C(C)(C)C)[C@]3(O[C@H]3C(=O)NO)[C@H]2O[Si](C)(C)C(C)(C)C)c(=O)[nH]c1=O", "TESTED_SYSTEM": "SN12C", "GI50": "1.61 µM (inactive)"}
{"COMPOUND": "C[C@]12CCC(=O)C=C1CC[C@@H]1C2CC[C@@]2(C)C1CC[C@@H]2OC(=O)C12OC1CCC2=O (some centres undefined)", "TESTED_SYSTEM": "SN12C", "GI50": "23.2 µM (inactive)"}
{"COMPOUND": "CC(C)(C)COS(=O)OCC(C)(C)C", "TESTED_SYSTEM": "SN12C", "GI50": "> 100 µM (inactive)"}
{"COMPOUND": "Cc1cnc(-n2c(C)nc3cc(Cl)ccc3c2=O)s1", "TESTED_SYSTEM": "SN12C", "GI50": "34.2 µM (inactive)"}

Query: Give the value of GI50 reported for the following: `CCn1cc(C(=O)O)c(=O)c2cc3c(cc21)S(=O)(=O)CC3`
Reply: > 100 µM (inactive)

Query: Give the value of GI50 reported for the following: `O=C(c1ccccc1)c1ccc2[nH]c(-c3c(Cl)c(Cl)c(Cl)c(Cl)c3C(=O)N/N=C/c3ccc(Cl)cc3)nc2c1`
Reply: 39.2 µM (inactive)

Query: Give the value of GI50 reported for the following: `Cc1ccc(S(=O)(=O)N/N=C/c2oc(-c3ccccc3Cl)c(-c3ccccc3Cl)c2[N+](=O)[O-])cc1`
Reply: 14.8 µM (inactive)

* * *

# Tested on: NCI-H23
# PROTOCOL_TEXT: NCI tumour cell line growth inhibition, 48 h
The source made the active and inactive calls. No stated cut-off is given here; in the data, active = GI50 up to about 1.1 µM and inactive = higher.
Result category, one only: Y (active), N (inactive)

Take a look at these entries with their results.
{"COMPOUND": "CC1CC=CC(O)C1 (configuration not stated)", "TESTED_SYSTEM": "NCI-H23", "CATEGORY": "N"}
{"COMPOUND": "COC(=O)c1cc2cc3c(c(O)c2c(=O)o1)O[C@@]1(Oc2c(O)c4c(c(O)c2[C@H]1OC1CC(OC)C(O)C(C)O1)C(=O)C=C(OC)C4=O)[C@H](O)C3 (some centres not stated)", "TESTED_SYSTEM": "NCI-H23", "CATEGORY": "Y"}
{"COMPOUND": "CC(C)c1ccc2c(c1)/C(=C1/Nc3ccccc3/C1=N/O)C(=O)N2", "TESTED_SYSTEM": "NCI-H23", "CATEGORY": "N"}
{"COMPOUND": "COc1ccccc1/C(=N\\OCCC(=O)O)c1cccs1", "TESTED_SYSTEM": "NCI-H23", "CATEGORY": "N"}
{"COMPOUND": "NC(=O)N/N=C1/c2ccccc2-n2nccc21", "TESTED_SYSTEM": "NCI-H23", "CATEGORY": "N"}

--- query ---
Query: For this compound, state the assay outcome: `Cc1ccc(NCCN(C)C)c2c(=O)c3cc(O)ccc3sc12`
Reply: N
